# ASSAYED TARGET: UniProt:O95398
# Sequence (O95398 whole entry, the tested form may be a part): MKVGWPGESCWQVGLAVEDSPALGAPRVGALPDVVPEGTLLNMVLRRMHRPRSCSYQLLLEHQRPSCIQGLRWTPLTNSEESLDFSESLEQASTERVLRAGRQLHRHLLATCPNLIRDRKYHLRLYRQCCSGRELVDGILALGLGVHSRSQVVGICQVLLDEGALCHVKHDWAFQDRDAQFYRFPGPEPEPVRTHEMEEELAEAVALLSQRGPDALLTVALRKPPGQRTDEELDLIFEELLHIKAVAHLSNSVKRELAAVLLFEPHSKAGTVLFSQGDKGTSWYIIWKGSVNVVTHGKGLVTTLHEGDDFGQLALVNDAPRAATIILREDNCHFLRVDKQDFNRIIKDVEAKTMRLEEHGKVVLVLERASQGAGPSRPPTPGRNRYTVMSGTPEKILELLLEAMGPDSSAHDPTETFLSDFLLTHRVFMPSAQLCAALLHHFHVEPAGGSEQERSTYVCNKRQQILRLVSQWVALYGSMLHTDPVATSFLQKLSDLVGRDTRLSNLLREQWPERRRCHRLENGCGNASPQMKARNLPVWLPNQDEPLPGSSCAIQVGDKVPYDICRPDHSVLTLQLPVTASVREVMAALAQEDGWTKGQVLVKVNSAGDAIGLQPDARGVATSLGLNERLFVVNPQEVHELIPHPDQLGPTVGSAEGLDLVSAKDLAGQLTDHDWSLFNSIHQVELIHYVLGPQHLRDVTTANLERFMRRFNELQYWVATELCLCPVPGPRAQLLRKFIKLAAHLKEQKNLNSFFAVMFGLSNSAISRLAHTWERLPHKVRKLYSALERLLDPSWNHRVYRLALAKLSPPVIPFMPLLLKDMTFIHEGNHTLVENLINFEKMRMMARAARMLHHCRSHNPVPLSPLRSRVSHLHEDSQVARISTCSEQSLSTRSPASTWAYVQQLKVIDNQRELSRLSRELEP
# PROCEDURE DETAILS: Inhibition of 8Fluo-cAMP binding to recombinant human His-tagged EPAC1 (157 to 881 residues) expressed in Escherichia coli measured after 5 mins by fluorescence polarization assay
Catalogue of EC50 readings, one per entry.

                                  structure  assayed_target  test_value
0  Nc1ncnc2c1cc(Br)n2[C@@H]1O[C@@H]2COP(=O)(O)O[C@H]2[C@H]1O  UniProt:O95398      530 nM
1  Nc1ncnc2c1nc(Br)n2[C@@H]1O[C@@H]2COP(=O)(O)O[C@H]2[C@H]1O  UniProt:O95398     1090 nM
2  Nc1ncnc2c1ccn2[C@@H]1O[C@@H]2COP(=O)(O)O[C@H]2[C@H]1O  UniProt:O95398     2750 nM

Proceeding to the next compound to report its EC50.
Entry "Nc1ncnc2c1c(Br)cn2[C@@H]1O[C@@H]2COP(=O)(O)O[C@H]2[C@H]1O" : reported EC50 = ?
2540 nM

Measured values drawn from ChEMBL document CHEMBL4400574 for this set.
